# System: human Factor 11 mRNA
# testSummary: Dose-dependent inhibition of human Factor 11 in HepB3 cells, electroporation (Example 7)
# Type: cell-based
# assayConditions: 10000 nM, ~16 hours
outcomeMeasure: percent inhibition of human Factor 11 mRNA relative to untreated control cells (%)

| substance | recordedResult |
| --- | --- |
| 417003 (antisense TGGTGCACAGTTTCTGGCAG; 2-13-5 gapmer chemistry, further chemistry not given here) [compound 417003] | 92 |
| 416826 (antisense ATGCCCTTCATGTCTAGGTC; 5-10-5 gapmer, further chemistry not given here) [compound 416826] | 92 |
| 416858 (antisense ACGGCATTGGTGCACAGTTT; 5-10-5 gapmer, further chemistry not given here) [compound 416858] | 92 |
| 416825 (antisense GCCCTTCATGTCTAGGTCCA; 5-10-5 gapmer, further chemistry not given here) [compound 416825] | 92 |
| 416838 (antisense GCAACCGGGATGATGAGTGC; 5-10-5 gapmer, further chemistry not given here) [compound 416838] | 88 |

====

Measured HCT of individual entries
# testSummary: Hematology assays in cynomolgus monkeys (Example 46)
# Format: in vivo
# assayConditions: Day 55
Strand notation (5' to 3'): a small letter for the sugar, then the base; units joined by * are phosphorothioate-linked, units joined directly phosphodiester-linked; [ ] holds rarer units or linkages, { } end groups; capitals alone tell only the bases. e = 2'-O-(2-methoxyethyl) (MOE); [5mC] = 5-methylcytosine; d = 2'-deoxy (DNA)

| substance | HCT / % |
| --- | --- |
| ISIS 449709: 3-8-3, 4-8-4, 2-10-2, 3-10-3 or 4-10-4 MOE microwalk gapmer (Table 46) (antisense eG*e[5mC]*eA*e[5mC]*dA*dG*dT*dT*dT*d[5mC]*dT*dG*dG*d[5mC]*eA*eG*eG*e[5mC]) | 40 |
| ISIS 445522: 5-8-5 or 6-8-6 MOE microwalk gapmer (Table 44) (antisense eG*e[5mC]*eA*e[5mC]*eA*dG*dT*dT*dT*d[5mC]*dT*dG*dG*e[5mC]*eA*eG*eG*e[5mC]) | 39 |
| ISIS 445531: 5-8-5 or 6-8-6 MOE microwalk gapmer (Table 44) (antisense eG*eG*e[5mC]*eA*eT*dT*dG*dG*dT*dG*d[5mC]*dA*d[5mC]*eA*eG*eT*eT*eT) | 41 |
| ISIS 449710: 3-8-3, 4-8-4, 2-10-2, 3-10-3 or 4-10-4 MOE microwalk gapmer (Table 46) (antisense e[5mC]*eA*e[5mC]*dA*dG*dT*dT*dT*d[5mC]*dT*dG*dG*d[5mC]*eA*eG*eG) | 41 |
| ISIS 416858: MOE gapmer, nucleobases 1275 to 1318 of SEQ ID NO: 1 (Table 8) (antisense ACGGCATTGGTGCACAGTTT; MOE gapmer, wing and gap sizes not given here) | 39 |
| ISIS 416850: MOE gapmer, nucleobases 1275 to 1318 of SEQ ID NO: 1 (Table 8) (antisense TGCACAGTTTCTGGCAGGCC; MOE gapmer, wing and gap sizes not given here) | 40 |

====

# Test system: human Factor 11 mRNA
# testSummary: Antisense inhibition of human Factor 11 in HepG2 cells by microwalk gapmers, lipofectin, 75 nM (Example 3)
# Assay type: cell-based
# assayConditions: HepG2, lipofectin, ~24 h, gapmers targeted to nucleobases 656 to 704 of SEQ ID NO: 1
Strand notation (5' to 3'): a small letter for the sugar, then the base; units joined by * are phosphorothioate-linked, units joined directly phosphodiester-linked; [ ] holds rarer units or linkages, { } end groups; capitals alone tell only the bases. e = 2'-O-(2-methoxyethyl) (MOE); [5mC] = 5-methylcytosine; d = 2'-deoxy (DNA)
Measured % inhibition of individual entries

| substance | % inhibition, % |
| --- | --- |
| 416948 (antisense eA*eT*dA*dA*dA*dT*dG*dT*d[5mC]*dT*dT*dT*dG*dT*dT*eG*e[5mC]*eA*eA*eG) [compound 416948] | 62 |
| 416961 (antisense eT*eG*dT*d[5mC]*dT*dA*dG*dG*dT*d[5mC]*d[5mC]*dA*d[5mC]*dA*dT*eA*eA*eA*eT*eG) [compound 416961] | 40 |
| 416953 (antisense eT*e[5mC]*d[5mC]*dA*d[5mC]*dA*dT*dA*dA*dA*dT*dG*dT*d[5mC]*dT*eT*eT*eG*eT*eT) [compound 416953] | 45 |

====

# Test system: human Factor 11 mRNA
# testSummary: Dose-dependent inhibition of human Factor 11 in HepG2 cells, electroporation 123.46-10,000 nM (Example 31)
# Assay type: cell-based
# assayConditions: electroporation, 123.47 nM, approx. 16 hours, relative to untreated control cells
Strand notation (5' to 3'): a small letter for the sugar, then the base; units joined by * are phosphorothioate-linked, units joined directly phosphodiester-linked; [ ] holds rarer units or linkages, { } end groups; capitals alone tell only the bases. e = 2'-O-(2-methoxyethyl) (MOE); [5mC] = 5-methylcytosine; d = 2'-deoxy (DNA)
outcomeMeasure: Percent inhibition of Factor 11 mRNA at 123.47 nM (%)

| substance | recordedResult |
| --- | --- |
| 445531 (antisense eG*eG*e[5mC]*eA*eT*dT*dG*dG*dT*dG*d[5mC]*dA*d[5mC]*eA*eG*eT*eT*eT) [compound 445531] | 8 |
| 416850 (antisense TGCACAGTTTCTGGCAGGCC; 5-10-5 gapmer, further chemistry not given here) [compound 416850] | 0 |
| 445505 (antisense e[5mC]*eG*eG*e[5mC]*eA*eT*dT*dG*dG*dT*dG*d[5mC]*dA*d[5mC]*eA*eG*eT*eT*eT*e[5mC]) [compound 445505] | 12 |
| 416860 (antisense CGGACGGCATTGGTGCACAG; 5-10-5 gapmer, further chemistry not given here) [compound 416860] | 0 |
| 416849 (antisense eG*e[5mC]*eA*e[5mC]*eA*dG*dT*dT*dT*d[5mC]*dT*dG*dG*d[5mC]*dA*eG*eG*e[5mC]*e[5mC]*eT) [compound 416849] | 5 |
| 445532 (antisense e[5mC]*eG*eG*e[5mC]*eA*dT*dT*dG*dG*dT*dG*d[5mC]*dA*e[5mC]*eA*eG*eT*eT) [compound 445532] | 5 |

====

# Tested on: human Factor 11 mRNA
# testSummary: Dose-dependent inhibition of human Factor 11 in HepG2 cells, electroporation 625-20,000 nM (Example 5)
# Format: cell-based
# assayConditions: 1250 nM, ~16 hours
outcomeMeasure: percent inhibition of human Factor 11 mRNA relative to untreated control cells (%)

| substance | recordedResult |
| --- | --- |
| 416925 (antisense GGTGCACAGTTTCTGGCAGG; 3-14-3 gapmer chemistry, further chemistry not given here) [compound 416925] | 80 |
| 416838 (antisense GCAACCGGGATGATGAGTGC; 5-10-5 gapmer, further chemistry not given here) [compound 416838] | 79 |
| 416850 (antisense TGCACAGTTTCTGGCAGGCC; 5-10-5 gapmer, further chemistry not given here) [compound 416850] | 80 |
| 416999 (antisense GCACAGTTTCTGGCAGGCCT; 2-13-5 gapmer chemistry, further chemistry not given here) [compound 416999] | 82 |
| 416826 (antisense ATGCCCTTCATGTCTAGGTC; 5-10-5 gapmer, further chemistry not given here) [compound 416826] | 82 |

====

# System: human Factor 11 mRNA
# testSummary: Dose-dependent inhibition of human Factor 11 in cyano primary hepatocytes, electroporation (Example 6)
# Format: cell-based
# assayConditions: 2.2 nM, ~16 hours
Measured percent inhibition of human Factor 11 mRNA relative to untreated control cells of individual entries
outcomeMeasure: percent inhibition of human Factor 11 mRNA relative to untreated control cells (%)

| substance | units | recordedResult |
| --- | --- | --- |
| 416925 (antisense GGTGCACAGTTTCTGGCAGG; 3-14-3 gapmer chemistry, further chemistry not given here) [compound 416925] | % | 9 |
| 416838 (antisense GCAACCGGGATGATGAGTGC; 5-10-5 gapmer, further chemistry not given here) [compound 416838] | % | 0 |
| 416826 (antisense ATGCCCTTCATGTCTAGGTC; 5-10-5 gapmer, further chemistry not given here) [compound 416826] | % | 24 |
| 416850 (antisense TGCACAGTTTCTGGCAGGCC; 5-10-5 gapmer, further chemistry not given here) [compound 416850] | % | 20 |

====

# testSummary: Hematology assays in cynomolgus monkeys (Example 46)
# Format: in vivo
# assayConditions: Day-14
Strand notation (5' to 3'): a small letter for the sugar, then the base; units joined by * are phosphorothioate-linked, units joined directly phosphodiester-linked; [ ] holds rarer units or linkages, { } end groups; capitals alone tell only the bases. e = 2'-O-(2-methoxyethyl) (MOE); [5mC] = 5-methylcytosine; d = 2'-deoxy (DNA)
Measured neutrophils of individual entries

| substance | neutrophils / % |
| --- | --- |
| ISIS 445531: 5-8-5 or 6-8-6 MOE microwalk gapmer (Table 44) (antisense eG*eG*e[5mC]*eA*eT*dT*dG*dG*dT*dG*d[5mC]*dA*d[5mC]*eA*eG*eT*eT*eT) | 60 |
| ISIS 416858: MOE gapmer, nucleobases 1275 to 1318 of SEQ ID NO: 1 (Table 8) (antisense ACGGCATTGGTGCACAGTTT; MOE gapmer, wing and gap sizes not given here) | 65 |
| ISIS 449707: 3-8-3, 4-8-4, 2-10-2, 3-10-3 or 4-10-4 MOE microwalk gapmer (Table 46) (antisense e[5mC]*eA*e[5mC]*eA*dG*dT*dT*dT*d[5mC]*dT*dG*dG*e[5mC]*eA*eG*eG) | 85 |
| ISIS 449708: 3-8-3, 4-8-4, 2-10-2, 3-10-3 or 4-10-4 MOE microwalk gapmer (Table 46) (antisense eA*e[5mC]*eA*dG*dT*dT*dT*d[5mC]*dT*dG*dG*e[5mC]*eA*eG) | 73 |
